EXPERIMENT: chemical genetic growth profiling, strain panel (AID 1159580);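 also: tested at 20 µM; growth read once vehicle control cultures reached saturation at 30 °C; 1 = growth at the plate median or of vehicle wells; lower values mean less growth of the strain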
CONDITION DESCRIPTION: S. cerevisiae deletion strains, growth OD, locus YDR477W, strain SNF1, hits give low values
The whole screen tested about 5,500 compounds, of which about 2,000 (36%) were called active. Inconclusive results (about 18%) are left out. The list shows a part of the results.
REPORTED PROPERTY: normalized growth
Give the figure only, with no unit attached.

Example cases with answers are listed next.
>>> recorded_measurement("Cc1cc(NNC(=O)c2ccccc2Cl)nc2c1c(C)nn2C")
0.978
>>> recorded_measurement("Cc1ccccc1C(=O)Oc1ccc(C(F)(F)F)cc1[N+](=O)[O-]")
0.937
>>> recorded_measurement("COc1ccc(/C=C2\\CSc3ccc(F)cc3C2=O)cc1")
0.916
>>> recorded_measurement("COc1ccc(CN2CSC(=S)N(Cc3ccc(OC)cc3)C2)cc1")
0.958

Reported normalized growth, compound "S=C(Nc1ccc(Cl)cc1Cl)N(c1cccc(Cl)c1)c1nc2ccccc2s1" : ____ 0.778

Could you tell me which normalized growth is on file for "Cc1nnsc1C(=O)Nc1cc(C(F)(F)F)cc(C(F)(F)F)c1" ? 0.995

I'd like to know its normalized growth. The compound in question is CSC1=NNC(c2nn(C)cc2Cl)S1 (stereo not drawn) 0.134

If you can, please state the reported normalized growth value of "Cc1nn(Cc2cccc(C(=O)Nc3ccc(Cl)cc3)c2)c(C)c1Br" . 0.959

// query normalized growth value for entry COc1cc2c(cc1OC)C(C)N(C(=O)c1sc3ccccc3c1Cl)CC2 (stereo not drawn) 0.934

Quick one: normalized growth of "CC(=O)CSc1nnc(-c2ccc(C(C)(C)C)cc2)n1-c1ccc(Cl)cc1" ? 0.958

Quick one: normalized growth for "Nc1ccccc1SCc1c(Cl)cccc1Cl" ? 0.859

Data request, read-out normalized growth, for "Cc1ccc(-c2csc(-c3cccnc3)n2)c(C)c1" 0.87

# lookup: normalized growth of O=C1C(=O)N(CN2CCc3c([nH]c4ccccc34)C2C(F)(F)F)c2ccc(F)cc21 (stereo not drawn) 0.86

Recorded normalized growth of "O=c1c(Sc2ccc(Cl)cc2)c(Sc2ccc(Cl)cc2)c1=O" , please. 0.136

Given the compound "N#CC(C#N)=C(SCc1c(Cl)cccc1Cl)SCc1c(Cl)cccc1Cl" , what is its reported normalized growth? 0.993

Fill in the blank: the reported normalized growth of "Cc1c(Cc2ccc(F)cc2)c(=O)oc2cc(O)ccc12" is ____. 0.971

Consider the compound shown here: "O=C(N/C=C/c1ccsc1)Nc1cc(C(F)(F)F)cc(C(F)(F)F)c1" What is its recorded normalized growth? 0.61

May I ask what normalized growth has been recorded for "Cc1cc(C(=O)NNc2ccc(F)cc2F)no1" ? 0.95

Can you share its normalized growth? I mean this compound: "Cc1ccc(/C=C2\CSc3ccc(F)cc3C2=O)cc1" 0.892

Request the reported normalized growth associated with "O=S(=O)(Nc1cccc(CCc2ccccn2)c1)c1cc(Cl)c(Cl)cc1Cl" 0.988

Return reported normalized growth; argument: Cc1ccc(OCC2SCCN2C(=O)c2ccc(C(F)(F)F)cc2)c([N+](=O)[O-])c1 (stereo not drawn) 0.981

Reported normalized growth for "O=C(CSc1nnnn1-c1ccccc1)c1ccccc1" : what is it? 0.663

Requested field: normalized growth. Item: "COc1cc(NC(=S)N(C)C)c(OC)cc1Cl" 0.979
